- MEASURED_ON: T1, human claudin 18.2 (hCLDN18.2) (human)
- T1 construct: also called CLDN18 splice variant 2; HEK293-hCLDN18.2
- ASSAY_TEXT: flow cytometry on HEK293-hCLDN18.2 cells; 1 ug/mL; antibody heat treated at 70 C for 5 min
EXPERIMENTAL_ENDPOINT: FACS binding signal (read-out unnamed)
Enter the number alone.

h5M9V10 humanized antibody (h5M9 VHv4 / h5M9 VLv1) (antibody, human IgG1, kappa, V domains shown, Human IgG1 (G1m17) / kappa) VH: QVQLKESGPGLVAPSETLSITCTVSGFSLTTYGVQWVRQPPGKGLEWLGAIWAGGNTNYNSALMSRLTISKDNSKSQVSLKMSSLTAADTAIYYCAKGGYGNAMDYWGQGTLVTVSS VL: DIVMTQSPSSLAVSLGERATMNCKSSQSLLNSGNQKNYLTWYQQKPGQPPKLLIYWASTRESGVPDRFSGSGSGTDFTLTISSVQAEDLAVYYCQNDYFFPFTFGQGTKLEIKR = 292

Now let's try a different one.
Reported FACS binding signal (read-out unnamed) for 5-M9 human-mouse chimeric monoclonal antibody (antibody, human IgG1, V domains shown, Mouse V regions fused to human IgG1 (G1m17) heavy chain constant region and human kappa light chain constant region; also called 5-M9-A; Chi 5-M9) VH: QVQLKESGPVLVAPSQSLSITCTVSGFSLTTYGVQWVRQPPGKGLEWLGAIWAGGNTNYNSALMSRLSISKDNSKSQVFLKMNSLQTDDTAIYYCAKGGYGNAMDYWGQGTSVTVAS VL: DIVMTQSPSSLTVTAGERVTMSCKSSQSLLNSGNQKNYLTWYQQKSGQPPKLLIYWASTRESGVPDRFTGSGSGTDFTLTISSVQAEDLAVYYCQNDYFFPFTFGSGTKLEIK was 289
